# Assay Summary: Cytotoxicity against human MDA231 cells after 48 hrs by MTT assay
# Format: functional, cell-based
# Test Context: MDA-MB-231, 48 h
Measurement Label: IC50 (µM)
Just the number please, in µM, no unit attached.

Reference set (4 entries):
Smiles Code: Oc1ccc(-c2nc(-c3c[nH]c4ccccc34)co2)cc1
Result Unit: µM
IC50: 1000
--
Smiles Code: Clc1ccc(-c2nc(-c3c[nH]c4ccccc34)co2)cc1
Result Unit: µM
IC50: 608
--
Smiles Code: c1ccc2c(-c3coc(C4CCNCC4)n3)c[nH]c2c1
Result Unit: µM
IC50: 528
--
Smiles Code: COc1ccc(-c2nc(-c3c[nH]c4ccccc34)co2)cc1
Result Unit: µM
IC50: 108

Asked: Please report IC50 for the following compound: c1ccc(-c2nc(-c3c[nH]c4ccccc34)co2)cc1
Given back: 171

---

# Test system: PC-3
# Assay Summary: Cytotoxicity against human PC3 cells after 48 hrs by MTT assay
# Type: functional, cell-based
# Test Context: PC-3, 48 h
Listed here: items and their measured IC50.
The answer is to be given in µM; state only the numeric part.

The examples below pair each entry with its known result.
Smiles Code: Fc1ccc(-c2nc(-c3c[nH]c4ccccc34)co2)cc1
Reported Value: 42.8
--
Smiles Code: c1ccc2c(-c3cocn3)c[nH]c2c1
Reported Value: 321
--
Smiles Code: COc1ccc(-c2nc(-c3c[nH]c4ccccc34)co2)cc1
Reported Value: 133
--
Smiles Code: Clc1ccc(Cn2cc(-c3coc(-c4ccc(Cl)cc4)n3)c3ccccc32)cc1
Reported Value: 350
--
Smiles Code: C=Cc1nc(-c2c[nH]c3ccccc23)co1
Reported Value: 426
--
Smiles Code: Cn1cc(-c2coc(C3CCNCC3)n2)c2ccccc21
Reported Value: 578
--
Smiles Code: Clc1ccc(-c2nc(-c3c[nH]c4ccccc34)co2)cc1
Reported Value: 151
--
Smiles Code: COc1cc(-c2nc(-c3cn(C)c4ccccc34)co2)ccc1OCc1ccccc1
Reported Value: 450

Asked: Check the records and state IC50 for COc1cc(-c2nc(-c3c[nH]c4ccccc34)co2)ccc1O
Given back: 303

Asked: Return IC50 (reported value) for this compound: C(=C\c1nc(-c2c[nH]c3ccccc23)co1)/c1ccccc1
Given back: 221

Asked: Answer with the recorded IC50 for the compound listed here: c1ccc(Cc2nc(-c3c[nH]c4ccccc34)co2)cc1
Given back: 368

Asked: Provide only the value of recorded IC50 for c1ccc(-c2nc(-c3c[nH]c4ccccc34)co2)cc1
Given back: 170

Asked: Name the recorded IC50 of the item COc1ccc(-c2nc(-c3c[nH]c4ccccc34)co2)cc1OC in your answer.
Given back: 359

Asked: Give reported IC50 value for Cn1cc(-c2coc(-c3ccc(Cl)cc3)n2)c2ccccc21
Given back: 302

Asked: Let me know recorded IC50 for Cc1nc(-c2c[nH]c3ccccc23)co1 , thanks.
Given back: 337

---

Quick list: pIC50 per entry.
# Tested on: MIA PaCa-2
# Assay Summary: Cytotoxicity against human MIAPaCa2 cells after 48 hrs by MTT assay
# Format: functional, cell-based
# Test Context: MIA PaCa-2, 48 h
// scale note: pIC50 = -log10(conc_M); give the bare number

Below: 5 compounds and their reported pIC50.
Smiles Code: Cn1cc(-c2coc(C3CCNCC3)n2)c2ccccc21
pIC50: 3.12

Smiles Code: c1ccc2c(-c3coc(-c4ccncc4)n3)c[nH]c2c1
pIC50: 4.42

Smiles Code: Cn1cc(-c2coc(-c3ccc(Cl)cc3)n2)c2ccccc21
pIC50: 4.05

Smiles Code: COc1cc(-c2nc(-c3cn(C)c4ccccc34)co2)ccc1OCc1ccccc1
pIC50: 3.50

Smiles Code: Oc1ccc(-c2nc(-c3c[nH]c4ccccc34)co2)cc1
pIC50: 3.00

Now examine the next entry.
Asked: Please give the documented pIC50 of C=Cc1nc(-c2c[nH]c3ccccc23)co1
Given back: 4.42

---

# Assay Summary: Cytotoxicity against human MDA231 cells after 48 hrs by MTT assay
# Assay type: functional, cell-based
# Test Context: MDA-MB-231, 48 h
Measurement Label: pIC50
Note: pIC50 values are expressed as the negative base-10 logarithm of concentration in M.

Examples from the recorded data:
Smiles Code: c1ccc(Cc2nc(-c3c[nH]c4ccccc34)co2)cc1
pIC50: 3.00
--
Smiles Code: COc1cc(-c2nc(-c3cn(C)c4ccccc34)co2)ccc1OCc1ccccc1
pIC50: 3.00
--
Smiles Code: Cn1cc(-c2coc(-c3ccc(Cl)cc3)n2)c2ccccc21
pIC50: 3.10

Asked: Identify measured pIC50 associated with c1ccc2c(-c3cocn3)c[nH]c2c1
Given back: 3.00

Asked: Identify the reported pIC50 for the following entry. COc1ccc(-c2nc(-c3c[nH]c4ccccc34)co2)cc1OC
Given back: 3.00

Asked: Identify the reported pIC50 for the following entry. Cc1nc(-c2c[nH]c3ccccc23)co1
Given back: 3.00

Asked: Read the entry C=Cc1nc(-c2c[nH]c3ccccc23)co1 and write its reported pIC50.
Given back: 3.00

Asked: Give reported pIC50 value for c1ccc2c(-c3coc(-c4ccncc4)n3)c[nH]c2c1
Given back: 3.98

---

# System: PC-3
# Assay Summary: Cytotoxicity against human PC3 cells after 48 hrs by MTT assay
# Type: functional, cell-based
# Test Context: PC-3, 48 h
Measurement Label: pIC50
Recall that pIC50 is obtained by taking minus log10 of the concentration measured in molar.

Here are 2 molecules together with their reported answers.
Smiles Code: Oc1ccc(-c2nc(-c3c[nH]c4ccccc34)co2)cc1
pIC50: 3.42
--
Smiles Code: c1ccc2c(-c3coc(-c4ccncc4)n3)c[nH]c2c1
pIC50: 3.53

Below: the item to evaluate.
Asked: Return reported pIC50. Input molecule: c1ccc2c(-c3coc(C4CCNCC4)n3)c[nH]c2c1
Given back: 3.39

---

# System: MIA PaCa-2
# Assay Summary: Cytotoxicity against human MIAPaCa2 cells after 48 hrs by MTT assay
# Assay type: functional, cell-based
# Test Context: MIA PaCa-2, 48 h
Measurement Label: pIC50
Keep it numeric: pIC50 is minus log10 of the concentration in mol/L.

# example entries with known answers
Smiles Code: COc1ccc(-c2nc(-c3c[nH]c4ccccc34)co2)cc1OC
Experimental Target: MIA PaCa-2
pIC50: 3.00

Smiles Code: COc1ccc(-c2nc(-c3c[nH]c4ccccc34)co2)cc1
Experimental Target: MIA PaCa-2
pIC50: 4.46

Asked: Indicate the recorded pIC50 value for this compound: C(=C\c1nc(-c2c[nH]c3ccccc23)co1)/c1ccccc1
Given back: 3.06

---

# Assay Summary: Cytotoxicity against human MDA231 cells after 48 hrs by MTT assay
# Type: functional, cell-based
# Test Context: MDA-MB-231, 48 h
Reported IC50 by item:
Give a bare numeral; the unit mM is implied.

Asked: Let me know recorded IC50 for Clc1ccc(Cn2cc(-c3coc(-c4ccc(Cl)cc4)n3)c3ccccc32)cc1 , thanks.
Given back: 0.216

Asked: Entry COc1cc(-c2nc(-c3c[nH]c4ccccc34)co2)ccc1O needs its IC50 filled in; supply it.
Given back: 1

Asked: Provide one value: measured IC50 of Cn1cc(-c2coc(C3CCNCC3)n2)c2ccccc21
Given back: 1

Asked: Please report the measured IC50 for Fc1ccc(-c2nc(-c3c[nH]c4ccccc34)co2)cc1
Given back: 0.0904

Asked: Output IC50 of C(=C\c1nc(-c2c[nH]c3ccccc23)co1)/c1ccccc1
Given back: 1

---

# Tested on: MIA PaCa-2
# Assay Summary: Cytotoxicity against human MIAPaCa2 cells after 48 hrs by MTT assay
# Assay type: functional, cell-based
# Test Context: MIA PaCa-2, 48 h
Measurement Label: IC50 (µM)
Form entry: value (µM) — number only.

Below: 2 molecules and their reported IC50.
Smiles Code: COc1cc(-c2nc(-c3c[nH]c4ccccc34)co2)ccc1O
Reported Value: 1000
//
Smiles Code: Clc1ccc(Cn2cc(-c3coc(-c4ccc(Cl)cc4)n3)c3ccccc32)cc1
Reported Value: 26

// switching to the query molecule
Asked: In one line, give reported IC50 of the entry c1ccc2c(-c3coc(C4CCNCC4)n3)c[nH]c2c1 .
Given back: 230
